For each record, write down the corresponding SPOT intensity.
Molecular target: T1, Myo5, Q04439
T1 sequence (Q04439 1072-1160, looked up): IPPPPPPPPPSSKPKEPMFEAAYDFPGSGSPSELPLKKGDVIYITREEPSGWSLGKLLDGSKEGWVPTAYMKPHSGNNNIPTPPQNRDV
Assay: SPOT array
Conditions: median of control spots 471
Just the number, please, no unit after it.

// query Which SPOT intensity value belongs to NMLSRPRLAKLPSIR ?
// result 11

// query Which SPOT intensity value belongs to MPAPPPPPPPPPGAF ?
// result 49

// query Which SPOT intensity value belongs to GTIARPLFLVVLFFI ?
// result 0

// query Which SPOT intensity value belongs to DDEDVPPQLPTRTKS ?
// result 0

// query Which SPOT intensity value belongs to HKVLRPFLLRRLKKD ?
// result 0

// query Which SPOT intensity value belongs to PKRRAPPPVPKKPSS ?
// result 119

// query Which SPOT intensity value belongs to FTLPPPPPPPGLDEL ?
// result 234
